Recorded Metric: melting point

// below: answered compounds
>>> print(df.to_string())
                                   compound       reported
0                 CCc1noc(-c2cc(Cl)ccc2N)n1  107 to 109 °C
1  CC1CNCCC1NC(=O)OC(C)(C)C (configuration not stated)  104 to 106 °C
2                    CCCCCCCC(=O)NCCCC(=O)O    69 to 71 °C
3                        Sc1nncn1CCc1ccccn1  204 to 206 °C
4  NCC(O)c1ccc(Cl)cc1 (configuration not stated)    97 to 99 °C
5         CS(=O)(=O)c1ccc(-c2nc(CCl)co2)cc1  129 to 131 °C
6                 COc1ccc2cc(C=O)c(Cl)nc2c1    84 to 86 °C
7          NC(=NO)c1cccc(NC(=O)CN2CCOCC2)c1   99 to 101 °C
8        Nc1onc(-c2ccc(Br)s2)c1-c1ccc(F)cc1  141 to 143 °C
9             O=C(O)CCn1cc([N+](=O)[O-])cn1  143 to 145 °C

Which measured melting point value corresponds to O=Cc1cc(F)cc2cccnc12 ?
114 to 116 °C

Which measured melting point value corresponds to CCOC(=O)c1cc([N+](=O)[O-])cnc1C ?
45 to 52 °C

Which measured melting point value corresponds to COc1cc(N)c(C(=O)O)cc1OC(F)F ?
168 to 170 °C

Which measured melting point value corresponds to Nc1c(-c2ccccc2)nc2sccn12 ?
148 to 152 °C

Which measured melting point value corresponds to O=C(O)c1cc(Br)c(S(=O)(=O)Cl)s1 ?
129 to 131 °C

Which measured melting point value corresponds to CN(C)Cc1ccc(C(=O)O)cc1 ?
239 to 241 °C

Which measured melting point value corresponds to Cc1ccsc1C(N)=S ?
117 to 119 °C
